System: MOLM14
Assay: cell viability relative to vehicle control; higher = less cytotoxic;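 also: after 48 h exposure read by CellTiter-Glo luminescence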
Conditions: 10 µM; SRSF2 genotype: SRSF2 wt/wt
Counter-ions that a name gives are not always drawn.
Items are presented alongside their recorded cell viability.
Units required after the number.

                                   compound    val
0  CCN(CCCc1ccccc1)CCCc1ccccc1 [Alverine Citrate]  87.4%
1     COc1ccccc1OCC(O)CO (stereo not drawn)   109%
2                Cc1cc(C2CCCCC2)n(O)c(=O)c1  2.18%
3  CC(C)Oc1ccc(C(=O)N[C@H](CNC(=O)CN(C)C)Cc2ccc(-c3cn4cccc([C@H](C)O)c4n3)cc2)cc1Cl  1.72%
4  O=C(Nc1cccc(C2=NCCN2)c1)Nc1cccc(C2=NCCN2)c1 [Imidocarb dipropionate]  87.7%

For the compound O=C(Cc1ccccc1)Nc1nnc(CCSCCc2nnc(NC(=O)Cc3ccccc3)s2)s1 , report cell viability. 91.2%

For the compound COC(=O)CC[C@H](NC(=O)[C@H](CC(=O)OC)NC(=O)OCc1ccccc1)C(=O)N[C@H](C(=O)N[C@@H](CC(=O)OC)C(=O)CF)C(C)C , report cell viability. 97.3%

For the compound COc1cc2nc(N3CCN(C(=O)C4COc5ccccc5O4)CC3)nc(N)c2cc1OC (stereo not drawn) [Doxazosin mesylate] , report cell viability. 105%

====

Tested on: K562
Test: cell viability relative to vehicle control; higher = less cytotoxic
Conditions: 10 µM; SRSF2 genotype: SRSF2 wt/wt
Where a name gives a salt, the structure may show the parent alone.
Items are presented alongside their recorded cell viability.
Units required after the number.

For the compound Cc1cc(C(C)Nc2ccccc2)c2nc(N3CCOCC3)cc(=O)n2c1 (stereo unspecified) , report cell viability. 93.3%

For the compound Cc1ccc(C(C)C)c(O)c1 , report cell viability. 99%

For the compound OC(CNCC(O)C1CCc2cc(F)ccc2O1)C1CCc2cc(F)ccc2O1 (stereo unspecified) [Nebivolol HCl] , report cell viability. 80.7%

For the compound CC1(C)CC[C@]2(C(=O)O)CC[C@]3(CO)C(=CC[C@@H]4[C@@]5(C)C[C@H](O)[C@H](O[C@@H]6O[C@H](CO)[C@@H](O)[C@H](O)[C@H]6O)[C@@](C)(C(=O)O)[C@@H]5CC[C@]43C)[C@@H]2C1 , report cell viability. 105%

For the compound CC[C@]1(O)C[C@H]2CN(CCc3c([nH]c4ccccc34)[C@@](C(=O)OC)(c3cc4c(cc3OC)N(C=O)[C@H]3[C@@](O)(C(=O)OC)[C@H](OC(C)=O)[C@]5(CC)C=CCN6CC[C@]43[C@@H]65)C2)C1 [Vincristine Sulfate] , report cell viability. 35.8%

For the compound CC[C@H]1OC(=O)[C@H](C)[C@@H](O[C@H]2C[C@@](C)(OC)[C@@H](O)[C@H](C)O2)[C@H](C)[C@@H](O[C@@H]2O[C@H](C)C[C@H](N(C)C)[C@H]2O)[C@](C)(O)C[C@@H](C)C(=O)[C@H](C)[C@@H](O)[C@]1(C)O [Erythromycin] , report cell viability. 97.1%

====

Test system: K562
Test: cell viability relative to vehicle control; higher = less cytotoxic
Details: 10 µM; SRSF2 genotype: SRSF2 wt/wt
REPORTED METRIC: cell viability

# count of solved cases: 5
COMPOUND	cell viability
CNc1nc(Nc2cnn(C3CCN(C4COC4)CC3F)c2Cl)ncc1C(F)(F)F (stereo not given)	91.7%
CC(/C=C/C=C(\C)C(=O)O[C@@H]1O[C@H](CO)[C@@H](O)[C@H](O)[C@H]1O)=C\C=C\C=C(C)\C=C\C=C(/C)C(=O)O[C@@H]1O[C@H](CO[C@@H]2O[C@H](CO)[C@@H](O)[C@H](O)[C@H]2O)[C@@H](O)[C@H](O)[C@H]1O [Crocin II]	99.8%
Cn1cc(-c2ccc3nnc(Sc4ccc5ncccc5c4)n3n2)cn1	96.6%
CCCCNc1ncc(-c2ccc(CN3CCOCC3)cn2)c(NC2CCC(O)CC2)n1 (stereo not given)	88%
Cc1ccc2nc(CN(CCN(Cc3nc4ccc(C)cc4[nH]3)Cc3nc4ccc(C)cc4[nH]3)Cc3nc4ccc(C)cc4[nH]3)[nH]c2c1	1.19%

Let us move to another entry and its cell viability.
Report cell viability on K562 for this entry: CONC(=O)c1ccccc1Nc1cc(Nc2cc(C)nn2C(C)C)ncc1Cl 105%
